Provide the recorded Kd for the entries that follow.
- Target of assay: Chromodomain-helicase-DNA-binding protein 4 (Homo sapiens); further: in the data inactive means no Kd found up to 30 µM
- Sequence (Q14839 whole entry): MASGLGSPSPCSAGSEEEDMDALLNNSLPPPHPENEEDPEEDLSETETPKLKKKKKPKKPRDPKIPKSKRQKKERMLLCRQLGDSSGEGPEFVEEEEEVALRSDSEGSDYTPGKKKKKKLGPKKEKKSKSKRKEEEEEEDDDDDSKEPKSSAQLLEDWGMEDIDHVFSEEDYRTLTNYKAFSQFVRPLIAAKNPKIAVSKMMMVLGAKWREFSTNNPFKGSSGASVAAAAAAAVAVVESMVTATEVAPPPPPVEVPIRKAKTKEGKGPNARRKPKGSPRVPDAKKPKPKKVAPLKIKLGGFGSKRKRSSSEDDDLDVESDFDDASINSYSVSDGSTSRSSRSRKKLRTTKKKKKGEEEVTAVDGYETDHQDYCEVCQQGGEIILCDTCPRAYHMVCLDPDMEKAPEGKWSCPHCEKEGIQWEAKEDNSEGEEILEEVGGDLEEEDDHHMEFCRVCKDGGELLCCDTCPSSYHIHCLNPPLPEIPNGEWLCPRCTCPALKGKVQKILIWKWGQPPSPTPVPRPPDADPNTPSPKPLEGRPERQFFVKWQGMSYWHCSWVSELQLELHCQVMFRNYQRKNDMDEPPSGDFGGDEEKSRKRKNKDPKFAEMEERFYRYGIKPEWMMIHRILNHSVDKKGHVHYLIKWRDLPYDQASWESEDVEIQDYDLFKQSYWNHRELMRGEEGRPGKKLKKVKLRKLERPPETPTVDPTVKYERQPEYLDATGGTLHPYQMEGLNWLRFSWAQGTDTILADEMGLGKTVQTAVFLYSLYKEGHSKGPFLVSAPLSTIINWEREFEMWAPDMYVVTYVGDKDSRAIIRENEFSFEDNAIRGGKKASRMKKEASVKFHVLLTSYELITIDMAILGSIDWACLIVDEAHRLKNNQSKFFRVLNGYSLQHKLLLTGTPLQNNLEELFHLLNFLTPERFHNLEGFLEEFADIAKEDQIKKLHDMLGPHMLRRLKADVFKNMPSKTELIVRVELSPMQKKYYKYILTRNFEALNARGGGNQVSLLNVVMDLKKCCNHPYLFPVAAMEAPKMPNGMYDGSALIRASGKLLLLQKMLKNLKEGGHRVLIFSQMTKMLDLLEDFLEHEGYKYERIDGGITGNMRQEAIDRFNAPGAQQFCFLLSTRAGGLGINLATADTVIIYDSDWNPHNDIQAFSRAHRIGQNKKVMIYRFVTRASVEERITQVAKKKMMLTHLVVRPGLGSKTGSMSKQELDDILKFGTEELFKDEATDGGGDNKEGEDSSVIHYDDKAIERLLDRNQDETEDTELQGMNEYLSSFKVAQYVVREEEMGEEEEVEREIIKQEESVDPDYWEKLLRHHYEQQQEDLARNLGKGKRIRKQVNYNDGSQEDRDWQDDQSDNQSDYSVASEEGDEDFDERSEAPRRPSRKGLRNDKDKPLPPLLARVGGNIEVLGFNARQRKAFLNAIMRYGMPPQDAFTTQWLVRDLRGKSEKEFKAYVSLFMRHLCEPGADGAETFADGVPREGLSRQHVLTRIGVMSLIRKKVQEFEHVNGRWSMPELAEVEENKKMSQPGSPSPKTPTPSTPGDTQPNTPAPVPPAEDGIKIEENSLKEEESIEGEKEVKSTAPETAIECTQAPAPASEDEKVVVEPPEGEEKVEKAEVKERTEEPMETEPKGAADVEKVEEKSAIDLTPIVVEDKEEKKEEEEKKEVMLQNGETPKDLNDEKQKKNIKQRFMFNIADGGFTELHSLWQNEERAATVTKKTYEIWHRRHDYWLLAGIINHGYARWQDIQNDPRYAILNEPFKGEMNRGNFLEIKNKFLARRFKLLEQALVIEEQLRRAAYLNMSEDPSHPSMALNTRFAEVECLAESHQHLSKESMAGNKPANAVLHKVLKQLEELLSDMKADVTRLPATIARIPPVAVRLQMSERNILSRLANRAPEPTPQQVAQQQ
The source made the active and inactive calls.

Compound	Kd
Cn1cc(-c2cnn3c(N)c(Br)c([C@@H]4CCCNC4)nc23)cn1	> 30 µM (inactive)
Cc1cccc(-c2nn3c(c2-c2ccnc4ccc(C(N)=O)cc24)CCC3)n1	> 30 µM (inactive)
COc1ccc(S(=O)(=O)N(C(C)=O)c2ccccc2/C=C/c2cc[n+]([O-])cc2)cc1	> 30 µM (inactive)
C[C@@H](Oc1cc(C(=O)Nc2ccc(C(=O)N3CCN(C)CC3)cc2)nnc1N)c1c(Cl)ccc(F)c1Cl	> 30 µM (inactive)
Cc1cc(Nc2ncnc3ccc(NC4=NC(C)(C)CO4)cc23)ccc1Oc1ccn2ncnc2c1	> 30 µM (inactive)

For the 2 compounds below, give their Kd values.
1. CN1C/C=C/CCOc2cccc(c2)-c2ccnc(n2)Nc2cccc(c2)C1
2. C[C@@H](NC(=O)c1ncnc(N)c1Cl)c1ncc(C(=O)Nc2cc(C(F)(F)F)c(Cl)cn2)s1

Ans:
["> 30 µM (inactive)", "> 30 µM (inactive)"]

###

- Target of assay: Mitogen-activated protein kinase kinase kinase 2 (Homo sapiens, UniProt Q9Y2U5); further: in the data inactive means no Kd found up to 30 µM
- Sequence (Q9Y2U5 whole entry): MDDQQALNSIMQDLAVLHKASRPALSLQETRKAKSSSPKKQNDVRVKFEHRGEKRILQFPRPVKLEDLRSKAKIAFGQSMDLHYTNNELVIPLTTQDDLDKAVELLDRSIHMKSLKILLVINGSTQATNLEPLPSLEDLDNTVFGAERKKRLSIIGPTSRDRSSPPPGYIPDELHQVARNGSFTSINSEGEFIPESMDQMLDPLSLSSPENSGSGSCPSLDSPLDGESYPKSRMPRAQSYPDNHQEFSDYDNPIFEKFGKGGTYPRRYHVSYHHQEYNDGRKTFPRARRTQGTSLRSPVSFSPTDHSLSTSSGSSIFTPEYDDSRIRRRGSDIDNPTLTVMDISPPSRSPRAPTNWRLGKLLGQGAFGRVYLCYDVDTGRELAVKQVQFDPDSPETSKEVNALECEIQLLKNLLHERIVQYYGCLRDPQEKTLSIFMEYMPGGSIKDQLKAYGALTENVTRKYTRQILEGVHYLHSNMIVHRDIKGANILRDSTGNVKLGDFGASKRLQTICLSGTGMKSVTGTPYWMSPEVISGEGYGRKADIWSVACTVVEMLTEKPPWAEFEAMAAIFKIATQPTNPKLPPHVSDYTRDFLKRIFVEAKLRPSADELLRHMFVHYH
Calls of active or inactive are those of the source.
Give one outcome, nothing more. List: active, inactive

> print(dat)
                               smiles.entry  category.label
1  COc1ncc(-c2ccc3nccc(-c4ccnnc4)c3c2)cc1NS(=O)(=O)c1ccc(F)cc1F        inactive
2  C#Cc1cccc(Nc2ncnc3cc(OC)c(OCCCCCCC(=O)NO)cc23)c1        inactive
3  O=C(Nc1c[nH]nc1-c1nc2cc(CN3CCOCC3)ccc2[nH]1)NC1CC1          active

Moving on to the next compound.
Q: Answer briefly: the call reported for Cc1cnc(NC(=O)Nc2cc(Br)c(C)cc2OC[C@@H]2CNCCO2)cn1 in this assay.
Ans: inactive

###

The source made the active and inactive calls.
Quick record: Kd, Ribosomal protein S6 kinase alpha-1 (Homo sapiens, UniProt Q15418).

> print(dat)
                                   compound  value.kind            observed
1  CNC(=O)c1cccc2cc(Oc3ccnc4cc(OCC5(N)CC5)c(OC)cc34)ccc12 [LUCITANIB]          Kd  > 30 µM (inactive)
2  N#CC1(c2ccc(NC(=O)c3cccnc3NCc3ccncc3)cc2)CCCC1 [RIVOCERANIB]          Kd  > 30 µM (inactive)

Q: Item under review: CN1C/C=C/CCOc2cccc(c2)-c2ccnc(n2)Nc2cccc(c2)C1 [ZOTIRACICLIB] . Reported Kd?
Ans: > 30 µM (inactive)

###

- Target of assay: UniProt:P11362
- Sequence (P11362 whole entry): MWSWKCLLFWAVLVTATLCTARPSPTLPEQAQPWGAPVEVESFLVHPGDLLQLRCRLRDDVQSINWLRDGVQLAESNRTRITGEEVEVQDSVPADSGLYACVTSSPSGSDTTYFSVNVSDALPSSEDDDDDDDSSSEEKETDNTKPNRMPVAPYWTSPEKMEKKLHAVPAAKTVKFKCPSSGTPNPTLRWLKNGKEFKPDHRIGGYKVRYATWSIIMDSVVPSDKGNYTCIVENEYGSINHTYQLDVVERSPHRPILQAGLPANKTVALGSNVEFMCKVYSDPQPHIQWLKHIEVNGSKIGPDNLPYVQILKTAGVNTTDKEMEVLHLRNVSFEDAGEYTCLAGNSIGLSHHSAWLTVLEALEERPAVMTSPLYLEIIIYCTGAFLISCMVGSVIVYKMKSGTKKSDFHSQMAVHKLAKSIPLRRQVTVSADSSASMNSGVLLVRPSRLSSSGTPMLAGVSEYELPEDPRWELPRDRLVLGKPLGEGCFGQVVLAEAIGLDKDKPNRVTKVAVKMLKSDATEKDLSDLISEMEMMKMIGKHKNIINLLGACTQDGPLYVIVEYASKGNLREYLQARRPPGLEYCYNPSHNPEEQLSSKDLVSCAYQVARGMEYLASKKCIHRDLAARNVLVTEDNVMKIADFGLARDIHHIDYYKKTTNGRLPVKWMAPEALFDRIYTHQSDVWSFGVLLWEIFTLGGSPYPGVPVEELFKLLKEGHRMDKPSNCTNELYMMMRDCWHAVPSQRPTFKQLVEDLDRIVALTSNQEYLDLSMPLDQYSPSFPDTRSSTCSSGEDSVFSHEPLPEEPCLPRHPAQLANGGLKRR
The source made the active and inactive calls.
Give one outcome, nothing more. List: label 1 (active), label 0 (inactive)

Some entries whose results are on file:
> print(dat)
                               smiles.entry  category.label
1  Cc1nc(Nc2n[nH]c3c2CN(C(=O)N[C@H](CN(C)C)c2ccccc2)C3(C)C)c2sccc2n1         label 1
2  Cn1cc(-c2cnc3ccc4ccc(CS(=O)(=O)NCc5ccccn5)cc4c(=O)c3c2)cn1         label 0
3  C#Cc1cccc(Nc2ncnc3cc(OC)c(OCCCCCCC(=O)NO)cc23)c1         label 0

Moving on to the next compound.
Q: Answer briefly: the call reported for Cc1csc(-c2nnc(Nc3ccc(Oc4ncccc4-c4ccnc(N)n4)cc3)c3ccccc23)c1 in this assay.
Ans: label 0
